tgt: human serum proteins (binding ascribed fully to human serum albumin, HSA) (human, UniProt P02768 25-609)
Sequence (P02768 25-609 limits assumed): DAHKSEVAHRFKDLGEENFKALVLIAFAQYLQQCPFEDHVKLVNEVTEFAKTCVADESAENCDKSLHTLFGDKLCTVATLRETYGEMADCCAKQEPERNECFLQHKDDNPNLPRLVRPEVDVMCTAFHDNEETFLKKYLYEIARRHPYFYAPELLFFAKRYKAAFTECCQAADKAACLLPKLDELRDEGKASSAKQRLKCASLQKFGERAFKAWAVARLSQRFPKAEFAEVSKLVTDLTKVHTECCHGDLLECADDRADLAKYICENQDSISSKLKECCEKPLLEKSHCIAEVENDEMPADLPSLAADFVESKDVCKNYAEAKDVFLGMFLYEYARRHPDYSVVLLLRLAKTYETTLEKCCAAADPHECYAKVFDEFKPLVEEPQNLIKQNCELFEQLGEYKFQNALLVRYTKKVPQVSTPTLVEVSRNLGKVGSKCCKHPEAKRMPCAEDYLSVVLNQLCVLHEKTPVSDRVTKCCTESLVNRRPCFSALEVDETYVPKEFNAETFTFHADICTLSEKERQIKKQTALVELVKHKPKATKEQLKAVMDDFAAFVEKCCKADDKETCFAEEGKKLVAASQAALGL
protocolNotes: cell-based or functional assay
Bridge positions count the residues as written; N and C are the ends. Square brackets hold non-standard residues; d marks the D form. * marks the point of attachment. S5 = C=CCCC[C@](C)(N)C(=O)O; Nle = CCCC[C@H](N)C(=O)O; Aib = CC(C)(N)C(=O)O; Propionyl = CCC(=O)*
Flag rule - 2% serum EC50 (Jurkat cell viability, CellTiter-Glo) less than 10 µM flags YES; the remaining entries get NO.

binder="Ac-DIIRNIARHLA[S5]VGD[S5][Nle]DRSI-NH2 (staple 12-16) [Compound 1 (crosslinked polypeptide derived from human BID BH3)]" class=NO
binder="Propionyl-RNIARHLA[S5]V[Aib]D[S5][Nle]DRSI-NH2 (staple 9-13) [Compound 5 (crosslinked polypeptide derived from human BID BH3)]" class=NO
binder="Ac-DAARNIARHLA[S5]V[Aib]D[S5][Nle]ARSI-NH2 (staple 12-16) [Compound 2 (crosslinked polypeptide derived from human BID BH3)]" class=NO
binder="Ac-ERLRRRI[S5]LCR[S5]HHST-NH2 (staple 8-12, also called hMAML) [Compound 17 (crosslinked polypeptide derived from human MAML peptide sequence)]" class=NO
binder="Ac-IWIAQALR[S5]IGN[S5]FNAYYARR-NH2 (staple 9-13) [Compound 16 (crosslinked polypeptide derived from human BIM BH3)]" class=YES
binder="Ac-IWIAQQLR[S5]IGD[S5]FNAYYARR-NH2 (staple 9-13) [Compound 11 (crosslinked polypeptide derived from human BIM BH3)]" class=YES
binder="Ac-DAIRNIARHLA[S5]V[Aib]D[S5][Nle]ARSI-NH2 (staple 12-16) [Compound 4 (crosslinked polypeptide derived from human BID BH3)]" class=NO
binder="Propionyl-RNIARHLA[S5]VGD[S5][Nle][Aib]RSI-NH2 (staple 9-13) [Compound 8 (crosslinked polypeptide derived from human BID BH3)]" class=NO
binder="Ac-RWIAQQLR[S5]IGD[S5]FNAYYARR-NH2 (staple 9-13) [Compound 13 (crosslinked polypeptide derived from human BIM BH3)]" class=YES
binder="Ac-ERLRRRI[S5]LAR[S5]HHST-NH2 (staple 8-12, also called hMAML) [Compound 18 (crosslinked polypeptide derived from human MAML peptide sequence)]" class=NO
binder="Ac-RWIAQALR[S5]IGN[S5]FNAYYARR-NH2 (staple 9-13) [Compound 15 (crosslinked polypeptide derived from human BIM BH3)]" class=YES
binder="Propionyl-RNIARHLA[S5]V[Aib]D[S5]FARSI-NH2 (staple 9-13) [Compound 7 (crosslinked polypeptide derived from human BID BH3)]" class=NO
binder="Ac-RWIAQALR[S5]IGD[S5]FNAFYARR-NH2 (staple 9-13) [Compound 14 (crosslinked polypeptide derived from human BIM BH3)]" class=YES
binder="Ac-DIARNIARHLA[S5]V[Aib]D[S5][Nle]ARSI-NH2 (staple 12-16) [Compound 3 (crosslinked polypeptide derived from human BID BH3)]" class=NO
binder="Ac-ALRRRI[S5]LCA[S5]HHST-NH2 (staple 7-11, also called hMAML) [Compound 19 (crosslinked polypeptide derived from human MAML peptide sequence)]" class=NO
binder="IWIAQALRXIGDXFNAYYARR (N-terminal acetyl (Ac); C-terminal amide (NH2); $ at 9 and 13 (alpha-methyl amino acids joined by an all-carbon eight-carbon crosslinker with a double bond)) [Compound 12 (crosslinked polypeptide derived from human BIM BH3)]" class=YES
binder="Propionyl-RNI[Aib]RHL[Aib][S5]V[Aib]D[S5]AARSI-NH2 (staple 9-13) [Compound 9 (crosslinked polypeptide derived from human BID BH3)]" class=YES
